Entries with their measured pKi, system Carbonic anhydrase (Candida albicans (strain SC5314 / ATCC MYA-2876) (Yeast)):
Give bare numbers, as −log10 of the molar value.

The value of pKi measured for the molecule Nc1ccc(S(N)(=O)=O)cc1 [SULFANILAMIDE] turned out to be 5.12

// recorded pKi for Cn1nc(S(N)(=O)=O)sc1=N : 5.86

Lookup result for NS(=O)(=O)c1ccc(CO)cc1 ; measured pKi: 6.42

The molecule listed as Cc1ccc(-c2cc(C(F)(F)F)nn2-c2ccc(S(N)(=O)=O)cc2)cc1 [CELECOXIB] has a reported pKi of 5.99

So for NCCc1ccc(S(N)(=O)=O)cc1 , the logged pKi turned out to be 5.50

Please report pKi for every entry that follows.
1. NS(=O)(=O)c1nnc(NS(=O)(=O)c2ccccc2)s1 [BENZOLAMIDE]
2. Nc1cc(C(F)(F)F)c(S(N)(=O)=O)cc1S(N)(=O)=O [2,4-DISULFAMYLTRIFLUOROMETHYLANILINE]
3. CCN[C@H]1CN(CCCOC)S(=O)(=O)c2sc(S(N)(=O)=O)cc21 [BRINZOLAMIDE]
4. CC1(C)O[C@@H]2[C@@H](CO[C@@]3(COS(N)(=O)=O)OC(C)(C)O[C@@H]23)O1 [TOPIRAMATE]

Reply:
5.82
5.21
5.96
5.96
